Origin of measurements: patent EP1581477B1

Molecular target: human DHODH (Homo sapiens, UniProt Q02127)
Construct: Prof; M. Löffler, Marburg, Germany (gift)
Sequence (Q02127 whole entry): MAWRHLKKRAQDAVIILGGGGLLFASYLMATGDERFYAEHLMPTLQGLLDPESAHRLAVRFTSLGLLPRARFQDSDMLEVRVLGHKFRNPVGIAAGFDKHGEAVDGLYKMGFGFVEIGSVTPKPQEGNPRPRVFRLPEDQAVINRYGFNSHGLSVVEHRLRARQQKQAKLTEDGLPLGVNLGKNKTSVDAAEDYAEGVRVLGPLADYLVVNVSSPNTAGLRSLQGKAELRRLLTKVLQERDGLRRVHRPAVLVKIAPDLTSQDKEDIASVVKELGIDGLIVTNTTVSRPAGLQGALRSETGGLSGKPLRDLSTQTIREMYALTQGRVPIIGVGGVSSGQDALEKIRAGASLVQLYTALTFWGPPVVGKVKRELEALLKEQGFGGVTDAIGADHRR
Experiment: Inhibition assay of DHODH activity (spectrophotometric, 2,6-dichloroindophenol reduction)
Details: recombinant human DHODH; 50 mM TrisHCl, pH 8,0, 30°C; absorption at 600 nm
pIC50: −log10 of the molar value.
Outcome Measure: pIC50

* COC(=O)C1=C(C(=O)Nc2ccc(-c3cccc(OC)c3)cc2F)CCC1 | < 5.30
* CCOc1cccc(-c2cc(F)c(NC(=O)C3=C(C(=O)O)CCC3O)c(F)c2)c1 (stereo not shown) | > 6.00
* O=C(O)C1=C(C(=O)Nc2c(F)cc(-c3ccccc3Cl)cc2F)C(O)CC1 (stereo not shown) | > 6.00
* O=C(O)C1=C(C(=O)Nc2c(F)cc(-c3ccccc3F)cc2F)C(O)CC1 (stereo not shown) | > 6.00
* COc1ccccc1-c1ccc(NC(=O)C2=C(C(=O)O)C(O)CC2)cc1Cl (stereo not shown) | > 6.00
* O=C(O)C1=C(C(=O)Nc2c(F)c(F)c(-c3cccc(OC(F)(F)F)c3)c(F)c2F)C(O)CC1 (stereo not shown) | > 6.00
* COc1cccc(-c2ccc(NC(=O)C3=C(C(=O)O)CCC3O)c(F)c2)c1 (stereo not shown) | > 6.00
* COc1cccc(-c2ccc(NC(=O)C3=C(C(=O)O)C(C(=O)O)CC3)c(F)c2)c1 (stereo not shown) | < 5.30
* O=C(O)C1=C(C(=O)Nc2c(F)cc(-c3ccccc3Cl)cc2F)CCC1O (stereo not shown) | > 6.00
* COc1cccc(-c2ccc(NC(=O)C3=C(C(=O)O)CCC3C(=O)O)c(F)c2)c1 (stereo not shown) | < 5.30
* COc1ccccc1-c1ccc(NC(=O)C2=C(C(=O)O)CCC2O)cc1Cl (stereo not shown) | > 6.00
* O=C(O)C1=C(C(=O)Nc2c(F)c(F)c(-c3cccc(OC(F)(F)F)c3)c(F)c2F)CCC1O (stereo not shown) | > 6.00
* CCOc1cccc(-c2cc(F)c(NC(=O)C3=C(C(=O)O)C(O)CC3)c(F)c2)c1 (stereo not shown) | > 6.00
